Field: GI50. Provide a value for each of the molecules that follow.
# Test system: HOP-18
# test_summary: NCI tumour cell line growth inhibition, 48 h
Active and inactive are the calls of the source. No stated cut-off is given here; in the data, active = GI50 up to about 1.1 µM and inactive = higher.

1) C[N+](C)(C)CC1CCCC1=O (stereo unspecified) : 1.87 µM (inactive)

Required: GI50, one value per molecule below.
1. O=S1(=O)CS(=O)(=O)OCCCCCO1
2. CC1OC1C(=O)C1(O)C(C)C(O)C23OC2(C(O)c2c(O)cccc2C3=O)C1O (stereo unspecified) [CERVICARCIN]
3. CCOc1ccc2nc(NC(=O)C(=O)C(C#N)CC(C)(C)C=O)sc2c1 (stereo unspecified)
4. CC1CN1P1(N2CC2C)=NP(N2CC2C)(N2CC2C)=NP(N2CC2C)(N2CC2C)=N1 (stereo unspecified)
5. COC(=O)C(=O)C(C#N)c1cccc(Cl)c1 (stereo unspecified)
6. Cc1cc(C)nc(NS(=O)(=O)c2ccc(Nc3c4ccccc4nc4c(C(=O)N5CCN(CCO)CC5)cccc34)cc2)n1
7. COc1cc2c3c(c1OC)C(=O)C=C3N(S(=O)(=O)c1ccc(C)cc1)CC2

Marked response:
> 100 µM (inactive)
0.0605 µM (active)
> 100 µM (inactive)
> 50 µM (inactive)
> 100 µM (inactive)
> 100 µM (inactive)
> 100 µM (inactive)

Hey, can you go through the list below and give me GI50 for every item?
1. NC(=O)C(=Cc1ccc(CP(=O)(O)O)cc1)C(N)=O
2. CN(C)c1nc(N(C)C)nc(N(C)CN(C)c2nc(N(C)C)nc(N(C)C)n2)n1
3. CCC1NCC(=O)c2c1[nH]c1ccccc21 (stereo unspecified)

Marked response:
1. > 100 µM (inactive)
2. > 100 µM (inactive)
3. > 100 µM (inactive)
